src = patent US20250090562A1

Assay: Compound 4 pharmacokinetics and tissue exposure, five daily subcutaneous doses, mice
Assay type: in vivo, C57BL/6 mice
Conditions: male, C57BL/6, mouse, in vivo, sc, 180 mg/kg, Tmax
Experimental endpoint: Tmax (h)

Smi: CC1=C(C)C(=O)C(CC[C@](C)(O)CCCCCCCCC(F)(F)F)=C(C)C1=O
Measurement unit: h
Experimental value: 2

----------
Test: Compound 4 pharmacokinetics and tissue exposure, five daily subcutaneous doses, mice
Assay type: in vivo, C57BL/6 mice
Settings: male, C57BL/6, mouse, in vivo, sc, 180 mg/kg

Smi: CC1=C(C)C(=O)C(CC[C@](C)(O)CCCCCCCCC(F)(F)F)=C(C)C1=O
AUC(0-t): 49100 ng·h/mL
